src = patent US20120277265A1

Let's look at some compounds and their measured FeCl3 % soluble Aβ.
Target: Aβ1-42 (Homo sapiens, UniProt P05067)
Construct: The β-amyloid peptide Aβ1-42 (Aβ1-42) was synthesised, purified (to a purity greater than 95%); made in house; host or cells: chemical peptide synthesis (no expression host)
Sequence (P05067 672-713): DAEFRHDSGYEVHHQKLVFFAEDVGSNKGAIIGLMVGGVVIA
Test: Inhibition of the precipitation of Aβ1-42 by the addition of ligand (Micro BCA assay of soluble/aggregated peptide)
Format: biochemical
Conditions: Aβ1-42 5 μM, 20 μM FeCl3, 1 h 37° C. then 1 h with 200 μM ligand, pH 7.4

Example cases with answers are listed next.
                                   compound    measurement_name  result
0  CC(C)(c1ccc2c(Cl)ccc(O)c2n1)c1ccc2c(Cl)ccc(O)c2n1 [Compound 4]  FeCl3 % soluble Aβ     45%
1  O=C(Nc1cccc2cccnc12)c1cccc2cccnc12 [Compound 24, N-8-quinolinyl-8-quinoline carboxamide]  FeCl3 % soluble Aβ     38%
2  O=C(c1ccc2cccc(O)c2n1)c1ccc2cccc(O)c2n1 [Compound 6, Bis(8-hydroxy-2-quinoline)methanone]  FeCl3 % soluble Aβ     51%
3  O=C(Nc1ccc2cccc(O)c2n1)c1ccc2cccc(O)c2n1 [Compound 18]  FeCl3 % soluble Aβ     49%
4  Oc1cccc2ccc(CC(Cc3ccc4cccc(O)c4n3)c3ccc4cccc(O)c4n3)nc12 [Compound 11]  FeCl3 % soluble Aβ     43%
5  Oc1c(I)cc(Cl)c2cccnc12 [Clioquinol, reference compound]  FeCl3 % soluble Aβ     51%
6  Oc1cccc2cccnc12 [8-hydroxyquinoline, reference compound]  FeCl3 % soluble Aβ     80%
7  Oc1cccc2ccc(Cc3ccc4cccc(O)c4n3)nc12 [Compound 1, 2,2′-methanediyl-bis(8-hydroxyquinoline)]  FeCl3 % soluble Aβ     61%
8  Oc1ccc(Cl)c2ccc(Cc3ccc4c(Cl)ccc(O)c4n3)nc12 [Compound 2]  FeCl3 % soluble Aβ     58%
9  Oc1ccc(Cl)c2ccc(CCc3ccc4c(Cl)ccc(O)c4n3)nc12 [Compound 8]  FeCl3 % soluble Aβ     41%

FeCl3 % soluble Aβ recorded for this compound, c1cnc2c(Oc3cccc4cccnc34)cccc2c1 [Compound 15, 8,8′-Oxydiquinoline] , is 42%

FeCl3 % soluble Aβ recorded for this compound, Oc1cccc2ccc(CCCCc3ccc4cccc(O)c4n3)nc12 [Compound 10] , is 43%

FeCl3 % soluble Aβ recorded for this compound, Oc1cccc2ccc(C(F)(F)c3ccc4cccc(O)c4n3)nc12 [Compound 5] , is 52%

FeCl3 % soluble Aβ recorded for this compound, c1cnc2c(NCCCNc3cccc4cccnc34)cccc2c1 [Compound 13, N,N′-di-8-quinolinyl-1,3-propanediamine] , is 66%

FeCl3 % soluble Aβ recorded for this compound, Oc1c(I)cc(Cl)c2ccc(CCc3ccc4c(Cl)cc(I)c(O)c4n3)nc12 [Compound 9] , is 38%

FeCl3 % soluble Aβ recorded for this compound, COc1ccc2ccc(CCc3ccc4ccc(OC)c(O)c4n3)nc2c1O [Compound 17] , is 38%

FeCl3 % soluble Aβ recorded for this compound, c1cnc2c(Nc3cccc4cccnc34)cccc2c1 [Compound 12, Bis(8-quinoline)amine] , is 59%
